Hey, just so you know, these numbers are from patent US10676459B2.

Assay: Human multiple-dose pharmacokinetic comparison
Type: in vivo
Details: in vivo, 300 mg qd for 14 days
REPORTED_PROPERTY: Tmax (h)

COMPOUND | NUMBER
O[C@@](Cn1cnnn1)(c1ccc(F)cc1F)C(F)(F)c1ccc(-c2ccc(OCC(F)(F)F)cc2)cn1 [Compound 1 Anhydrous] | 5

----------
Assay: Human multiple-dose pharmacokinetic comparison
Assay type: in vivo
Details: in vivo, 600 mg bid loading dose for 3 days, then 300 mg qd maintenance for 10 days
REPORTED_PROPERTY: Cmax

MOLECULE | RESULT
O[C@@](Cn1cnnn1)(c1ccc(F)cc1F)C(F)(F)c1ccc(-c2ccc(OCC(F)(F)F)cc2)cn1 [Compound 1 X-Hydrate] | 2520 ng/mL

----------
Test: Human multiple-dose pharmacokinetic comparison
Format: in vivo
Settings: in vivo, 300 mg qd for 14 days

MOLECULE | Cmax, ng/mL
O[C@@](Cn1cnnn1)(c1ccc(F)cc1F)C(F)(F)c1ccc(-c2ccc(OCC(F)(F)F)cc2)cn1 [Compound 1 Anhydrous] | 4690

----------
Assay: Human multiple-dose pharmacokinetic comparison
Format: in vivo
Conditions: in vivo, 600 mg bid loading dose for 3 days, then 300 mg qd maintenance for 10 days

COMPOUND | Tmax
O[C@@](Cn1cnnn1)(c1ccc(F)cc1F)C(F)(F)c1ccc(-c2ccc(OCC(F)(F)F)cc2)cn1 [Compound 1 X-Hydrate] | 5 h
